Measured Ki on UniProt P28335 follows.
Sequence (P28335 whole entry): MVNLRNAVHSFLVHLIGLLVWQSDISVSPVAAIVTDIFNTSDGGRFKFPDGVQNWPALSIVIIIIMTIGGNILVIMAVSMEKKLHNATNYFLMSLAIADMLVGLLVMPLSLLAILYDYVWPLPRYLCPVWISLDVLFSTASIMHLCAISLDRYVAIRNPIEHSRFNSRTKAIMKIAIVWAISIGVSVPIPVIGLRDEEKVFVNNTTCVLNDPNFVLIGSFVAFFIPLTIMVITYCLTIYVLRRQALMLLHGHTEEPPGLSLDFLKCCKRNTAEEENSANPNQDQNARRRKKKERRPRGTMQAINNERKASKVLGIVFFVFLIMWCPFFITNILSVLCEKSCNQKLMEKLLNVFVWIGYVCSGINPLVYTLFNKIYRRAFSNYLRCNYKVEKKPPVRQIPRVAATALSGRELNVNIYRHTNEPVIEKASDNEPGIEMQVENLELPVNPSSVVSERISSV
Only the number, expressed in nM, is required.

Ki recorded for this compound, Cc1ccc2c(ccn2CC(C)N)c1 (centres undefined) , is 63.1

Ki recorded for this compound, Cc1ccc2ccn(CC(C)N)c2c1 (centres undefined) , is 15.8

Ki recorded for this compound, COc1cccc2c1ccn2CC(C)N (centres undefined) , is 126

Ki recorded for this compound, CC(N)Cn1ccc2c1-c1cc(F)ccc1C2(C)C (centres undefined) , is 5.01

Ki recorded for this compound, CC(N)Cn1ccc2cc(Cl)c(F)cc21 (centres undefined) , is 2

Ki recorded for this compound, `C[C@H](N)Cn1ccc2cc(F)c(Cl)cc21` , is 1.26

Ki recorded for this compound, `C[C@H](N)Cn1ccc2c(Cl)c(F)ccc21` , is 1.26

Ki recorded for this compound, CC(N)Cn1ccc2c1-c1cc(Cl)ccc1C2 (centres undefined) , is 3.98

Ki recorded for this compound, COc1ccc2c(c1)-c1c(ccn1CC(C)N)C2(C)C (centres undefined) , is 0.398

Ki recorded for this compound, `C[C@@H](N)Cn1ccc2c(Cl)c(F)ccc21` , is 1.26

Ki recorded for this compound, CC(N)Cn1ccc2c1-c1cc(F)ccc1C2 (centres undefined) , is 3.16

Ki recorded for this compound, `COc1ccc2c(c1)-c1c(ccn1C[C@H](C)N)C2` , is 1

Ki recorded for this compound, `C[C@@H](N)Cn1ccc2cc(F)c(Cl)cc21` , is 10

Ki recorded for this compound, CC(N)Cn1ccc2c1-c1cc(Br)ccc1C2 (centres undefined) , is 3.98

###

# SYSTEM: 5-hydroxytryptamine receptor 2C (Rattus norvegicus, UniProt P08909)
# TEST: Efficacy (pEC50) was evaluated for 5-HT2C receptor-mediated stimulation of IP3 formation in vitro in choroid plexus of the rat
EXPERIMENTAL READOUT: EC50 (nM)
Only the number, expressed in nM, is required.

COMPOUND: CC(N)Cn1ccc2c1-c1cc(F)ccc1C2(C)C (stereo not given)
OBSERVED VALUE: 200
--
COMPOUND: Cc1ccc2c(c1)-c1c(ccn1CC(C)N)C2 (stereo not given)
OBSERVED VALUE: 501
--
COMPOUND: CC(N)Cn1ccc2cc(Cl)c(F)cc21 (stereo not given)
OBSERVED VALUE: 398
--
COMPOUND: CC(N)Cn1ccc2cc(Br)ccc21 (stereo not given)
OBSERVED VALUE: 2000
--
COMPOUND: Cc1cccc2c1ccn2CC(C)N (stereo not given)
OBSERVED VALUE: 2510

EC50 recorded for this compound, COc1ccc2c(ccn2CC(C)N)c1 (stereo not given) , is 10000

EC50 recorded for this compound, `C[C@H](N)Cn1ccc2cc(F)c(Cl)cc21` , is 200

EC50 recorded for this compound, `C[C@H](N)Cn1ccc2c(Cl)c(F)ccc21` , is 316

EC50 recorded for this compound, `C[C@H](N)Cn1ccc2cc(F)c(F)cc21` , is 200

###

# Test system: Rattus norvegicus
# TEST: Compound was tested in schedule induced polydipsia in rats expressed as %maximum suppression at minimum effective dose of 3 mg/kg intraperitoneally
# Type: functional
# RUN PARAMETERS: route intraperitoneal
EXPERIMENTAL READOUT: Max suppression (%)
Only the number, expressed in %, is required.

Below: 3 compounds and their reported Max suppression.
COMPOUND: C[C@H](N)Cn1ccc2c(Cl)c(F)ccc21
Max suppression, %: -97

COMPOUND: C[C@H](N)Cn1ccc2cc(F)c(F)cc21
Max suppression, %: -73

COMPOUND: CC(N)Cn1ccc2cc(Cl)c(F)cc21 (centres undefined)
Max suppression, %: -88

Next up:
Max suppression recorded for this compound, CC(N)Cn1ccc2cc(F)ccc21 (centres undefined) , is -97

###

# SYSTEM: 5-hydroxytryptamine receptor 2C (Rattus norvegicus)
# TEST: Induction of penile erection in rats after subcutaneous administration, indicative of 5-HT 2c receptor activation
# Assay type: functional, organism-based
EXPERIMENTAL READOUT: ED50 (mg/kg)
Only the number, expressed in mg/kg, is required.

Below: 4 compounds and their reported ED50.
COMPOUND: COc1ccc2c(c1)-c1c(ccn1CC(C)N)C2 (configuration not stated)
OBSERVED VALUE: 0.6

COMPOUND: CC(N)Cn1ccc2cc(Br)ccc21 (configuration not stated)
OBSERVED VALUE: 4

COMPOUND: COc1ccc2c(c1)-c1c(ccn1C[C@H](C)N)C2
OBSERVED VALUE: 1.2

COMPOUND: C[C@H](N)Cn1ccc2c(Cl)c(F)ccc21
OBSERVED VALUE: 2.7

Next up:
ED50 recorded for this compound, CC(N)Cc1c[nH]c2ccc(F)cc12 (configuration not stated) , is 0.8

###

# SYSTEM: 5-hydroxytryptamine receptor 2C (Rattus norvegicus) (UniProt P08909)
# TEST: Induction of penile erection in rats following p.o. administration, indicative of 5-HT 2c receptor activation
# Format: functional, organism-based
Below: a set of entries, each annotated with reported ED50.
Only the number, expressed in mg/kg, is required.

MOLECULE: CC(N)Cn1ccc2cc(F)ccc21 (stereo unspecified)
SYSTEM: 5-hydroxytryptamine receptor 2C (Rattus norvegicus) (UniProt P08909)
ED50 (mg/kg): 2.7

ED50 recorded for this molecule, `C[C@H](N)Cn1ccc2cc(F)c(Cl)cc21` , is 5.5

ED50 recorded for this molecule, COc1ccc2c(c1)-c1c(ccn1CC(C)N)C2 (stereo unspecified) , is 11

ED50 recorded for this molecule, CC(N)Cc1c[nH]c2ccc(F)cc12 (stereo unspecified) , is 9.9

ED50 recorded for this molecule, COc1ccc2c(c1)-c1c(ccn1CC(C)N)C2(C)C (stereo unspecified) , is 10

ED50 recorded for this molecule, `COc1ccc2c(c1)-c1c(ccn1C[C@H](C)N)C2` , is 10

ED50 recorded for this molecule, `C[C@H](N)Cn1ccc2cc(F)c(F)cc21` , is 10

ED50 recorded for this molecule, Cc1ccc2c(c1)-c1c(ccn1CC(C)N)C2(C)C (stereo unspecified) , is 10

ED50 recorded for this molecule, `C[C@@H](N)Cn1ccc2cc(F)c(F)cc21` , is 30

ED50 recorded for this molecule, CC(N)Cn1ccc2cc(Cl)c(F)cc21 (stereo unspecified) , is 15

###

Measured pKi on 5-hydroxytryptamine receptor 2A (Homo sapiens) follows.
Sequence (P28223 whole entry): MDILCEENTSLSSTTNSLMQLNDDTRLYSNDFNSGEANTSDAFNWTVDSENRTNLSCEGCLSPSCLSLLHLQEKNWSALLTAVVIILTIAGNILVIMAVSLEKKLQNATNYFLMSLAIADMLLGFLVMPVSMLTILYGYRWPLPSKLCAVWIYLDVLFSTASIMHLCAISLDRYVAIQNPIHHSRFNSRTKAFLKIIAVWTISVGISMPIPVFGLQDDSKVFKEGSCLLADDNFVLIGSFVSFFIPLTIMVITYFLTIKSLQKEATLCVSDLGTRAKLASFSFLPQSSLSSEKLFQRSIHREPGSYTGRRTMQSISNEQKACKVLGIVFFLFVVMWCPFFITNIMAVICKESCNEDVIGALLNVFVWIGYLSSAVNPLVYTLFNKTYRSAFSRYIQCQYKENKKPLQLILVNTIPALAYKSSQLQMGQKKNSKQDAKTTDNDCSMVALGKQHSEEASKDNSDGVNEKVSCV
Lab note: report pKi as minus log10 of the concentration in molar units, number only.

Query `C[C@@H](N)Cn1ccc2cc(F)c(F)cc21` on 5-hydroxytryptamine receptor 2A (Homo sapiens); pKi returned: 7.00

Query `C[C@H](N)Cn1ccc2cc(F)c(F)cc21` on 5-hydroxytryptamine receptor 2A (Homo sapiens); pKi returned: 7.00

Query Cc1ccc2c(c1)-c1c(ccn1CC(C)N)C2 (stereo unspecified) on 5-hydroxytryptamine receptor 2A (Homo sapiens); pKi returned: 7.20

Query CC(N)Cn1ccc2c1-c1cc(Br)ccc1C2 (stereo unspecified) on 5-hydroxytryptamine receptor 2A (Homo sapiens); pKi returned: 7.00

Query CC(N)Cc1c[nH]c2ccc(F)cc12 (stereo unspecified) on 5-hydroxytryptamine receptor 2A (Homo sapiens); pKi returned: 7.20

Query `C[C@@H](N)Cn1ccc2cc(F)c(Cl)cc21` on 5-hydroxytryptamine receptor 2A (Homo sapiens); pKi returned: 7.10

###

# SYSTEM: 5-hydroxytryptamine receptor 2C (Rattus norvegicus) (UniProt P08909)
# Sequence (whole entry): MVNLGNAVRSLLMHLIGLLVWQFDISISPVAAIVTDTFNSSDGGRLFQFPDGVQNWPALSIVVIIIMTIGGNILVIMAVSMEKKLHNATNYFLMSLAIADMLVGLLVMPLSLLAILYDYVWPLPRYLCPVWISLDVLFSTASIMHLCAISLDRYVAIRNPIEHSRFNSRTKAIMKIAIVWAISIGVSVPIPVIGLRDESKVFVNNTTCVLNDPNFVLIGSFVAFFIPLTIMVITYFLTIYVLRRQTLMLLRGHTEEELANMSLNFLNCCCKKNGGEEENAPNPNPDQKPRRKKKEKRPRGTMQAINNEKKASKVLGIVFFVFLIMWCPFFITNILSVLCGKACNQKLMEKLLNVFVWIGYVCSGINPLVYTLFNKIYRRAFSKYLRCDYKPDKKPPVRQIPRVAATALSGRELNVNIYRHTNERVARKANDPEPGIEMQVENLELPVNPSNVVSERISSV
# TEST: Intrinsic 5-HT 2c receptor activity as induced IP3 turnover in vitro in rat choroid plexus
# Assay type: functional, tissue-based
EXPERIMENTAL READOUT: Efficacy
Please give the numeric answer without any surrounding text.

COMPOUND: C[C@@H](N)Cn1ccc2cc(F)c(F)cc21
EXPERIMENTAL READOUT: Efficacy
OBSERVED VALUE: 1

Efficacy recorded for this compound, CC(N)Cn1ccc2c1-c1cc(Br)ccc1C2 (stereo not drawn) , is 1

Efficacy recorded for this compound, CC(N)Cn1ccc2c(F)cccc21 (stereo not drawn) , is 0.7

Efficacy recorded for this compound, `C[C@H](N)Cn1ccc2cc(F)c(Cl)cc21` , is 1
